- targetUnderTest: human V1a receptor (Homo sapiens, UniProt P37288)
- Sequence (P37288 whole entry): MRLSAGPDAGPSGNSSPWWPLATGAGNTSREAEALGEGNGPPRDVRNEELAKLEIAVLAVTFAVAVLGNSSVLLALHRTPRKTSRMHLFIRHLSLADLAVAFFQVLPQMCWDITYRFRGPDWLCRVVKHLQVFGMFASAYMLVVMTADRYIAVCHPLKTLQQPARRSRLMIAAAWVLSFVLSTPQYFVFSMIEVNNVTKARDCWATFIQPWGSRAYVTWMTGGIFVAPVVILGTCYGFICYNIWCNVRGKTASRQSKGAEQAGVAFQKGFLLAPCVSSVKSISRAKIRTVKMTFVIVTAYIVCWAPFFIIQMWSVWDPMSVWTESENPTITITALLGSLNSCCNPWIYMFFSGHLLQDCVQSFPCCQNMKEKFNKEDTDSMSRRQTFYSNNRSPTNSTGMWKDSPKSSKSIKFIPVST
- methodNotes: Cellular in vitro assay for determining vasopressin receptor activity, V1a receptor cell line (photoprotein luminescence)
- cond: CHO cell line transfected with the human V1a receptor; agonist [Arg8]-vasopressin at EC50 concentration; read-out: IC50 hV1a
reportedMetric: IC50
Reply with the number and its unit after it.

Study these solved cases before continuing.
O=CN1CCC(Nc2nc(Cn3nc(-c4ccc(Cl)cc4)n(C[C@H](O)C(F)(F)F)c3=O)nn2-c2ccccc2Cl)C1 (mixture of isomers) [Example 41] :: 930 pM
CC1(C)CN(c2nc(Cn3nc(-c4ccc(Cl)cc4)n(C[C@H](O)C(F)(F)F)c3=O)nn2CCC(F)(F)F)CCN1 [Example 114] :: 10300 pM

Read the next record carefully.
Record O=c1n(Cc2nc(N3CCC(O)(C(F)(F)F)C3)n(-c3ccccc3Cl)n2)nc(-c2ccc(Cl)cc2)n1C[C@H](O)C(F)(F)F (mixture of isomers) [Example 13] . Reported IC50: 350 pM

---

- targetUnderTest: human V2 receptor (Homo sapiens, UniProt P30518)
- Sequence (P30518 whole entry): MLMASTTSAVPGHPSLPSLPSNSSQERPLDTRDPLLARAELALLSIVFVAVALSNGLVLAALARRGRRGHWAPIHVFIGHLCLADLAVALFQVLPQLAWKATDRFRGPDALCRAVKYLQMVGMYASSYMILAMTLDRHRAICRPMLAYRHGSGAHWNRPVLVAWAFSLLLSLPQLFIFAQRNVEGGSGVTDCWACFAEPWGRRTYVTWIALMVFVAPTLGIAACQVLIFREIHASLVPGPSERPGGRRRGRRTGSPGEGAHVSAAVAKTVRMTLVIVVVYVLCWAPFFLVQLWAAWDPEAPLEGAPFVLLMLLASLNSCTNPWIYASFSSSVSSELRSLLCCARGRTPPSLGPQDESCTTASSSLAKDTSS
- methodNotes: Cellular in vitro assay for determining vasopressin receptor activity, V2 receptor cell line (CRE-luciferase)
- cond: CHO cell line transfected with the human V2 receptor; agonist [Arg8]-vasopressin at EC50 concentration; read-out: IC50 hV2
reportedMetric: IC50 (nM)
Provide only the numeric value, understood in nM.

Answered cases to consult:
COC1CCN(c2nc(Cn3nc(-c4ccc(Cl)cc4)n(C[C@H](O)C(F)(F)F)c3=O)nn2-c2ccccc2Cl)C1 (mixture of isomers) :: 1.9
O=c1n(Cc2nc(NCC3(O)CCNCC3)n(-c3ccccc3Cl)n2)nc(-c2ccc(Cl)cc2)n1C[C@H](O)C(F)(F)F :: 12
O=c1n(Cc2nc(N3CCS(=O)(=O)CC3)n(-c3ncccc3Cl)n2)nc(-c2ccc(Cl)cc2)n1C[C@H](O)C(F)(F)F :: 408
CC1(C)CN(c2nc(Cn3nc(-c4ccc(Cl)cc4)n(C[C@H](O)C(F)(F)F)c3=O)nn2-c2ccccc2Cl)CCO1 :: 18
O=c1n(Cc2nc(N3CCNC(C(F)(F)F)C3)n(-c3ccccc3Cl)n2)nc(-c2ccc(Cl)cc2)n1C[C@H](O)C(F)(F)F (single isomer, unassigned) [Example 67] :: 22

Short answer for `CNc1nc(Cn2nc(-c3ccc(Cl)cc3)n(C[C@H](O)C(F)(F)F)c2=O)nn1-c1cccc(Cl)c1` : IC50 was 1.04

The molecule listed as `O=C1CCCN1CCNc1nc(Cn2nc(-c3ccc(Cl)cc3)n(C[C@H](O)C(F)(F)F)c2=O)nn1-c1ccccc1Cl` shows IC50 equal to 13

Kindly note the recorded IC50 for NC(CNc1nc(Cn2nc(-c3ccc(Cl)cc3)n(C[C@H](O)C(F)(F)F)c2=O)nn1-c1ccccc1Cl)C(F)(F)F (single isomer, unassigned) [Example 7] , which is 1.12

Value of measured IC50 for the entry `O=c1n(Cc2nc(N3CCC(F)(F)CC3)n(-c3ccccc3Cl)n2)nc(-c2ccc(Cl)cc2)n1C[C@H](O)C(F)(F)F` : 8.75

Measured IC50, `CC(C)(N)CNc1nc(Cn2nc(-c3ccc(Cl)cc3)n(C[C@H](O)C(F)(F)F)c2=O)nn1-c1ccccc1F` : 105

Query `NC(=O)C1CN(c2nc(Cn3nc(-c4ccc(Cl)cc4)n(C[C@H](O)C(F)(F)F)c3=O)nn2-c2ccccc2Cl)C1` yields IC50 of 3.6

Per the record, `CC(=O)NCCNc1nc(Cn2nc(-c3ccc(Cl)cc3)n(C[C@H](O)C(F)(F)F)c2=O)nn1-c1ccccc1Cl` has IC50 of 2.4

Lookup result for O=C1CCC(Nc2nc(Cn3nc(-c4ccc(Cl)cc4)n(C[C@H](O)C(F)(F)F)c3=O)nn2CCC(F)(F)F)CN1 (mixture of isomers) ; measured IC50: 350

---

- targetUnderTest: human V2 receptor (Homo sapiens, UniProt P30518)
- methodNotes: Cellular in vitro assay for determining vasopressin receptor activity, V2 receptor cell line (CRE-luciferase)
- cond: CHO cell line transfected with the human V2 receptor; agonist [Arg8]-vasopressin at EC50 concentration; read-out: IC50 hV2
Each item that follows carries a reported IC50.
Numeric only. Scale: nM

Some entries whose results are on file:
CC(C)(O)CNc1nc(Cn2nc(-c3ccc(Cl)cc3)n(C[C@H](O)C(F)(F)F)c2=O)nn1CCC(F)(F)F [Example 110] :: 170
O=c1n(Cc2nc(N3CCCC3)n(-c3cccc(F)c3)n2)nc(-c2ccc(Cl)cc2)n1C[C@H](O)C(F)(F)F [Example 88] :: 11.9
O=c1n(Cc2nc(N3CCC(O)C3)n(-c3ccccc3Cl)n2)nc(-c2ccc(Cl)cc2)n1C[C@H](O)C(F)(F)F (mixture of isomers) [Example 43] :: 4.4

Let us move to another entry and its IC50.
For record CC1(C)CN(c2nc(Cn3nc(-c4ccc(Cl)cc4)n(C[C@H](O)C(F)(F)F)c3=O)nn2CCC(F)(F)F)CCN1 [Example 114] the listed IC50 is 1800

---

- targetUnderTest: human V2 receptor (Homo sapiens)
- methodNotes: Cellular in vitro assay for determining vasopressin receptor activity, V2 receptor cell line (CRE-luciferase)
- cond: CHO cell line transfected with the human V2 receptor; agonist [Arg8]-vasopressin at EC50 concentration; read-out: IC50 hV2
reportedMetric: IC50 (nM)
Report the value in nM with no unit label.

O=C1NCC2(CN(c3nc(Cn4nc(-c5ccc(Cl)cc5)n(C[C@H](O)C(F)(F)F)c4=O)nn3-c3ccccc3Cl)C2)N1 :: 6.05
O=C1CN(c2nc(Cn3nc(-c4ccc(Cl)cc4)n(C[C@H](O)C(F)(F)F)c3=O)nn2-c2ncccc2Cl)CCN1 :: 99.5

--- query ---
Entry NC(CNc1nc(Cn2nc(-c3ccc(Cl)cc3)n(C[C@H](O)C(F)(F)F)c2=O)nn1-c1ccccc1Cl)C(F)(F)F (single isomer, unassigned) [Example 8] — recorded IC50 = 1.69

---

Entries annotated with measured pIC50
- targetUnderTest: human V2 receptor (Homo sapiens, UniProt P30518)
- methodNotes: Cellular in vitro assay for determining vasopressin receptor activity, V2 receptor cell line (CRE-luciferase)
- cond: CHO cell line transfected with the human V2 receptor; agonist [Arg8]-vasopressin at EC50 concentration; read-out: IC50 hV2
Note: pIC50 values are expressed as the negative base-10 logarithm of concentration in M.

CS(=O)(=O)NCCNc1nc(Cn2nc(-c3ccc(Cl)cc3)n(C[C@H](O)C(F)(F)F)c2=O)nn1-c1ccccc1Cl [Example 24] :: 8.99
O=c1n(Cc2nc(N3CCC(O)(C(F)(F)F)CC3)n(-c3ccccc3Cl)n2)nc(-c2ccc(Cl)cc2)n1C[C@H](O)C(F)(F)F [Example 28] :: 8.00

// switching to the query molecule
// field: pIC50; key: O=c1n(Cc2nc(N3CCNC(C(F)(F)F)C3)n(CCC(F)(F)F)n2)nc(-c2ccc(Cl)cc2)n1C[C@H](O)C(F)(F)F (single isomer, unassigned) [Example 108] ; value = 7.08

---

- targetUnderTest: human V2 receptor (Homo sapiens, UniProt P30518)
- methodNotes: Cellular in vitro assay for determining vasopressin receptor activity, V2 receptor cell line (CRE-luciferase)
- cond: CHO cell line transfected with the human V2 receptor; agonist [Arg8]-vasopressin at EC50 concentration; read-out: IC50 hV2
- Description: B-1. Cellular In Vitro Assay for Determining Vasopressin Receptor Activity The identification of agonists and antagonists of the V1a and V2 vasopressin receptors from humans, rats and dogs as well as the quantification of the activity of the compounds of the invention is carried out using recombinant cell lines. […] The bioluminescence of the cell lines is detected using a suitable luminometer [Milligan G, Marshall F, Rees S, Trends in Pharmacological Sciences 17, 235-237 (1996)]. […]
reportedMetric: IC50 (nM)
The response must be a number in nM with no trailing unit.

O=c1n(Cc2nc(N3CCCC3)n(-c3ccccc3Cl)n2)nc(-c2ccc(Cl)cc2)n1C[C@H](O)C(F)(F)F :: 26.8

// next entry
Looking up `CC(F)(F)CNc1nc(Cn2nc(-c3ccc(Cl)cc3)n(C[C@H](O)C(F)(F)F)c2=O)nn1-c1ccccc1Cl` , I see its IC50 listed as 1.2

---

- targetUnderTest: human V1a receptor (Homo sapiens)
- methodNotes: Cellular in vitro assay for determining vasopressin receptor activity, V1a receptor cell line (photoprotein luminescence)
- Type: cell-based
- cond: selectivity ratio of the cellular IC50 values
As shown below, each of these compounds has a reported ratio IC50 hV2/hV1a value.
Just the number, please, no unit after it.

# count of solved cases: 2
CC1(C)CN(c2nc(Cn3nc(-c4ccc(Cl)cc4)n(C[C@H](O)C(F)(F)F)c3=O)nn2-c2ncccc2Cl)CCN1 :: 1606.2
CC1(C)CN(c2nc(Cn3nc(-c4ccc(Cl)cc4)n(C[C@H](O)C(F)(F)F)c3=O)nn2-c2ccccc2Cl)CCO1 :: 31.0

# evaluate next
Field ratio IC50 hV2/hV1a (entry `NC(=O)[C@@H]1CCCN1c1nc(Cn2nc(-c3ccc(Cl)cc3)n(C[C@H](O)C(F)(F)F)c2=O)nn1-c1ccccc1Cl` ) reads 13.3

From: patent US11331314B2
